system: Escherichia coli TOP10; experiment: shrunken log2 fold change of peptide-encoding DNA abundance (4.5 h post-induction vs induction); higher = less antimicrobial activity (less host growth inhibition); conditions: time post-induction: 4.5 h; library: site-saturation at positions 5, 18, 19, 20;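 further: peptides expressed intracellularly from a pBAD plasmid library in pooled LB shake-flask culture, induced with 0.3% L-arabinose, DNA abundance read by NGS, three biological replicates, DESeq2 with apeglm shrinkage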
Readout: shrunken log2 fold change
Write the value as a bare number.

For `RRIRHRPPRLPRPRPRPMLKPRP` , what is its reported shrunken log2 fold change?
-0.164

For `RRIRYRPPRLPRPRPRPQLNPRP` , what is its reported shrunken log2 fold change?
-1.15

For `RRIRSRPPRLPRPRPRPWEPPRP` , what is its reported shrunken log2 fold change?
-0.029

For `RRIRGRPPRLPRPRPRPSDWPRP` , what is its reported shrunken log2 fold change?
0.251

For `RRIRDRPPRLPRPRPRPSVIPRP` , what is its reported shrunken log2 fold change?
0.0683

For `RRIRWRPPRLPRPRPRPEMCPRP` , what is its reported shrunken log2 fold change?
-0.0695

For `RRIRSRPPRLPRPRPRPHNTPRP` , what is its reported shrunken log2 fold change?
-0.337

For `RRIRTRPPRLPRPRPRPAKWPRP` , what is its reported shrunken log2 fold change?
-0.000772

For `RRIRNRPPRLPRPRPRPNIPPRP` , what is its reported shrunken log2 fold change?
-0.24

For `RRIRPRPPRLPRPRPRPNHGPRP` , what is its reported shrunken log2 fold change?
-0.0975

For `RRIRIRPPRLPRPRPRPFFCPRP` , what is its reported shrunken log2 fold change?
-0.106

For `RRIRWRPPRLPRPRPRPISDPRP` , what is its reported shrunken log2 fold change?
-0.154

For `RRIRPRPPRLPRPRPRPSHPPRP` , what is its reported shrunken log2 fold change?
-0.03

For `RRIRQRPPRLPRPRPRPDLGPRP` , what is its reported shrunken log2 fold change?
0.0039

For `RRIRLRPPRLPRPRPRPLYRPRP` , what is its reported shrunken log2 fold change?
-0.0861
